- assayDetails: Solubility of the compound in aqueous solution at 10 mg/ml by UV spectroscopy
- Type: physicochemical
measurementLabel: solubility

Lookup: Which measured solubility value corresponds to N=C(N)NCCC[C@H](NC(=O)[C@@H](N)CCCNC(=N)N)C(=O)Nc1ccc(Oc2ccc(S(=O)(=O)CC3CS3)cc2)cc1 (stereo not given in full) ?
Found: > 10000 µg/mL

Lookup: Which measured solubility value corresponds to NCC(=O)Nc1ccc(Oc2ccc(S(=O)(=O)CC3CS3)cc2)cc1 (stereo not given) ?
Found: > 10000 µg/mL

Lookup: Which measured solubility value corresponds to N=C(N)NCCC[C@H](N)C(=O)Nc1ccc(Oc2ccc(S(=O)(=O)CC3CS3)cc2)cc1 (stereo not given in full) ?
Found: > 10000 µg/mL

Lookup: Which measured solubility value corresponds to N=C(N)NCCC[C@H](N)C(=O)Oc1ccc(Oc2ccc(S(=O)(=O)CC3CS3)cc2)cc1 (stereo not given in full) ?
Found: > 10000 µg/mL

Lookup: Which measured solubility value corresponds to NCCCC[C@H](N)C(=O)Oc1ccc(Oc2ccc(S(=O)(=O)CC3CS3)cc2)cc1 (stereo not given in full) ?
Found: > 10000 µg/mL

Lookup: Which measured solubility value corresponds to N=C(N)NCCC[C@H](NC(=O)[C@@H](N)CCCNC(=N)N)C(=O)Oc1ccc(Oc2ccc(S(=O)(=O)CC3CS3)cc2)cc1 (stereo not given in full) ?
Found: > 10000 µg/mL

Lookup: Which measured solubility value corresponds to NCC(=O)Oc1ccc(Oc2ccc(S(=O)(=O)CC3CS3)cc2)cc1 (stereo not given) ?
Found: > 10000 µg/mL

Lookup: Which measured solubility value corresponds to N[C@@H](CCC(=O)O)C(=O)Oc1ccc(Oc2ccc(S(=O)(=O)CC3CS3)cc2)cc1 (stereo not given in full) ?
Found: > 10000 µg/mL

Lookup: Which measured solubility value corresponds to N[C@@H](CCC(=O)O)C(=O)Nc1ccc(Oc2ccc(S(=O)(=O)CC3CS3)cc2)cc1 (stereo not given in full) ?
Found: > 10000 µg/mL

Lookup: Which measured solubility value corresponds to NCCCC[C@H](N)C(=O)Nc1ccc(Oc2ccc(S(=O)(=O)CC3CS3)cc2)cc1 (stereo not given in full) ?
Found: > 10000 µg/mL

----------
- Tested on: Mus musculus
- assayDetails: Prodrug conversion in C57B1/6 mouse assessed as 4-[4-((Thiiran-2-yl)methylsulphonyl)phenoxy]benzamine level in plasma at […], iv administered as single bolus dose after 42 mins by reversed-phase HPLC/UV analysis
- Type: ADME, organism-based
- conditionInfo: in vivo, 0.7 h, read-out: Drug metabolism
measurementLabel: concentration (nM)
Kindly answer with a numeric value in nM, unit omitted.

Lookup: Hi! What's the reported concentration for Cl.N=C(N)NCCC[C@H](N)C(=O)Nc1ccc(Oc2ccc(S(=O)(=O)CC3CS3)cc2)cc1 (stereo partly specified) on Mus musculus?
Found: 207

----------
What t1/2 was measured for each of the following?
- Tested on: Plasma
- assayDetails: Half life in human plasma at 10 mM by reversed-phase HPLC/UV analysis
- Format: ADME, cell-free
- conditionInfo: 10000 µM

Lookup: Hi! What's the reported t1/2 for N=C(N)NCCC[C@H](NC(=O)[C@@H](N)CCCNC(=N)N)C(=O)Nc1ccc(Oc2ccc(S(=O)(=O)CC3CS3)cc2)cc1 (stereo not given in full) on Plasma?
Found: 11.8 min

Lookup: Hi! What's the reported t1/2 for N[C@@H](CCC(=O)O)C(=O)Nc1ccc(Oc2ccc(S(=O)(=O)CC3CS3)cc2)cc1 (stereo not given in full) on Plasma?
Found: 32.8 min

Lookup: Hi! What's the reported t1/2 for N=C(N)NCCC[C@H](N)C(=O)Nc1ccc(Oc2ccc(S(=O)(=O)CC3CS3)cc2)cc1 (stereo not given in full) on Plasma?
Found: 29.5 min

Lookup: Hi! What's the reported t1/2 for NCCCC[C@H](N)C(=O)Nc1ccc(Oc2ccc(S(=O)(=O)CC3CS3)cc2)cc1 (stereo not given in full) on Plasma?
Found: 25.1 min

Lookup: Hi! What's the reported t1/2 for NCC(=O)Nc1ccc(Oc2ccc(S(=O)(=O)CC3CS3)cc2)cc1 (stereo not given) on Plasma?
Found: 32.4 min

----------
- Tested on: Blood
- assayDetails: Half life in human blood at 10 mM by reversed-phase HPLC/UV analysis
- Assay type: ADME, tissue-based
- conditionInfo: 10000 µM
What t1/2 was measured for each of the following?
Kindly answer with a numeric value in min, unit omitted.

Lookup: Which measured t1/2 value corresponds to N=C(N)NCCC[C@H](NC(=O)[C@@H](N)CCCNC(=N)N)C(=O)Nc1ccc(Oc2ccc(S(=O)(=O)CC3CS3)cc2)cc1 (stereo not given in full) ?
Found: 5.9

Lookup: Which measured t1/2 value corresponds to N=C(N)NCCC[C@H](N)C(=O)Nc1ccc(Oc2ccc(S(=O)(=O)CC3CS3)cc2)cc1 (stereo not given in full) ?
Found: 25.4

Lookup: Which measured t1/2 value corresponds to NCCCC[C@H](N)C(=O)Nc1ccc(Oc2ccc(S(=O)(=O)CC3CS3)cc2)cc1 (stereo not given in full) ?
Found: 15.3

Lookup: Which measured t1/2 value corresponds to N[C@@H](CCC(=O)O)C(=O)Nc1ccc(Oc2ccc(S(=O)(=O)CC3CS3)cc2)cc1 (stereo not given in full) ?
Found: 27.9

Lookup: Which measured t1/2 value corresponds to NCC(=O)Nc1ccc(Oc2ccc(S(=O)(=O)CC3CS3)cc2)cc1 (stereo not given) ?
Found: 27.1

----------
- Tested on: Mus musculus
- assayDetails: Prodrug conversion in C57B1/6 mouse assessed as 4-[4-((Thiiran-2-yl)methylsulphonyl)phenoxy]benzamine level in plasma at […], iv administered as single bolus dose after 62 to 66 mins by reversed-phase HPLC/UV analysis
- Assay type: ADME, organism-based
- conditionInfo: in vivo, read-out: Drug metabolism
measurementLabel: concentration (nM)
Kindly answer with a numeric value in nM, unit omitted.

Lookup: Which measured concentration value corresponds to Cl.N=C(N)NCCC[C@H](N)C(=O)Nc1ccc(Oc2ccc(S(=O)(=O)CC3CS3)cc2)cc1 (stereo partly specified) ?
Found: 90.8

----------
measurementLabel: Ki (µM)
Kindly answer with a numeric value in µM, unit omitted.

Lookup: Hi! What's the reported Ki for N[C@@H](CCC(=O)O)C(=O)Nc1ccc(Oc2ccc(S(=O)(=O)CC3CS3)cc2)cc1 (stereo partly specified) on Matrix metalloproteinase-9 (Homo sapiens)?
Found: 4.3

----------
- Test system: Mus musculus
- assayDetails: Prodrug conversion in C57B1/6 mouse assessed as 4-[4-((Thiiran-2-yl)methylsulphonyl)phenoxy]benzamine level in plasma at […], iv administered as single bolus dose after 11 to 12 mins by reversed-phase HPLC/UV analysis
- Type: ADME, organism-based
- conditionInfo: in vivo, read-out: Drug metabolism
measurementLabel: concentration (nM)
Kindly answer with a numeric value in nM, unit omitted.

Lookup: Which measured concentration value corresponds to Cl.N=C(N)NCCC[C@H](N)C(=O)Nc1ccc(Oc2ccc(S(=O)(=O)CC3CS3)cc2)cc1 (stereo partly specified) ?
Found: 2450

----------
- Tested on: Mus musculus
- assayDetails: Prodrug conversion in C57B1/6 mouse assessed as 4-[4-((Thiiran-2-yl)methylsulphonyl)phenoxy]benzamine level in plasma at […], iv administered as single bolus dose after 240 mins by reversed-phase HPLC/UV analysis
- Assay type: ADME, organism-based
- conditionInfo: in vivo, 4 h, read-out: Drug metabolism
measurementLabel: concentration (nM)
Kindly answer with a numeric value in nM, unit omitted.

Lookup: Which measured concentration value corresponds to Cl.N=C(N)NCCC[C@H](N)C(=O)Nc1ccc(Oc2ccc(S(=O)(=O)CC3CS3)cc2)cc1 (stereo partly specified) ?
Found: 14.5

----------
- assayDetails: Apparent intrinsic clearance in human liver microsomes
- Format: ADME, Microsome
measurementLabel: CLint scaled

Lookup: Which measured CLint scaled value corresponds to Nc1ccc(Oc2ccc(S(=O)(=O)CC3CS3)cc2)cc1 (stereo unspecified) ?
Found: < 10 mL/min/kg

----------
- System: Mus musculus
- assayDetails: Prodrug conversion in C57B1/6 mouse plasma assessed as parent compound level at […], iv administered as single bolus dose after 22 mins by reversed-phase LC/MS analysis
- Format: ADME, organism-based
- conditionInfo: in vivo, read-out: Drug metabolism
measurementLabel: concentration (nM)
Kindly answer with a numeric value in nM, unit omitted.

Lookup: Hi! What's the reported concentration for Cl.N=C(N)NCCC[C@H](N)C(=O)Nc1ccc(Oc2ccc(S(=O)(=O)CC3CS3)cc2)cc1 (stereo partly specified) on Mus musculus?
Found: 138

----------
- Test system: Mus musculus
- assayDetails: Prodrug conversion in C57B1/6 mouse plasma assessed as parent compound level at […], iv administered as single bolus dose after 11 to 12 mins by reversed-phase LC/MS analysis
- Assay type: ADME, organism-based
- conditionInfo: in vivo, read-out: Drug metabolism
measurementLabel: concentration (µM)
Kindly answer with a numeric value in µM, unit omitted.

Lookup: Which measured concentration value corresponds to Cl.N=C(N)NCCC[C@H](N)C(=O)Nc1ccc(Oc2ccc(S(=O)(=O)CC3CS3)cc2)cc1 (stereo partly specified) ?
Found: 1.58
